B1: MXI1 peptide 4-19 (Max-interacting protein 1), 16-mer library wild type / SIN3A PAH2 (SIN3A PAH domain, residues 295-383) (parent)
chain 1: VKMINVQRLLEAAEFL
chain 2: SLQNNQPVEFNHAINYVNKIKNRFQGQPDIYKAFLEILHTYQKEQRNAKEAGGNYTPALTEQEVYAQVARLFKNQEDLLSEFGQFLPDA

# Variants of: B1
# PROTOCOL DETAILS: proteomic peptide phage display deep mutational scan (ProP-PD DMS): M13 P8 16-mer library selected against immobilised GST-tagged bait for four days (rounds), NGS of the eluted pools per day and pseudo-replica
# RUN CONDITIONS: with SIN3A PAH2 (SIN3A PAH domain, residues 295-383); bait immobilised on MaxiSorp plates (10 µg), library pre-cleared on GST, 2 h binding at 4 °C, five washes; one round per day, days 1-4; value from days 2 and 3; keep out of graded; scale: average fractional NGS count over selection days 2 and 3
Listing of recorded screen value by entry.
MEASUREMENT KIND: screen value

>>> reported_value("chain 1 V6T")
0
>>> reported_value("chain 1 E14Q")
0.00119
>>> reported_value("chain 1 I4F")
0.000274
>>> reported_value("chain 1 L16Q")
0.000343
>>> reported_value("chain 1 L10V")
0
>>> reported_value("chain 1 Q7L")
0.000431
>>> reported_value("chain 1 N5L")
0.00022
>>> reported_value("chain 1 Q7E")
0
>>> reported_value("chain 1 Q7W")
0.00193
>>> reported_value("chain 1 K2W")
0.00198
>>> reported_value("chain 1 E14Y")
0.00266
